Each item that follows carries a reported transcriptional activation domain activity.
Tested on: Saccharomyces cerevisiae
MEASUREMENT_DESCRIPTION: transcriptional activation domain activity (GFP:mCherry ratio, weighted mean of sorted bins, harmonized to initial dataset scale) (arbitrary fluorescence ratio units); higher = stronger transcriptional activation
TEST_SETTINGS: beta-estradiol 1 µM; induction time 4 h
Answer with a number only.

| QUERY_SEQUENCE | NUMERIC_VALUE |
| --- | --- |
| AVRAATSVLCKEMLRPGQSASLGLREAEEVECRMRALARLERVWVKTGASTNG | 54900 |
| MLYSFRLLFILFFFLLEALSICRRCNVTGRGCFRDWDCWNACHQYAVSPRWGI | 41900 |
| MHKCCLLDFLMLSTNYADVFYFHKLCIILTSFFSRLNPLLSIGLNLLLFCLLI | 57000 |
| MPCLCHFWMTCLCHFRMPLFFYFQMPCLCHFWMTCLCHFLMPCLFYFWMPFLC | 43200 |

The recorded transcriptional activation domain activity for entry SSATASAADAATTDAASGSLEARKKKDDKKKGDKKKGKKGDKKGGKKAASTTA equals 12500

The reported value for MTVLQYPFRFIVRTHFPLIWAYSSSLGVGYVFLIGSFFLFISLHPLPLFCLLC in terms of transcriptional activation domain activity is 66100

Sample NTLSRTKAYMTFILAFVAITSIVRFTGSTLYLIARFLLGKRAWITYLIYVYLY ; transcriptional activation domain activity observed: 52700

Consider DLARSQKFILCSIKHWGSYLFLFFSCRSFNLFFNHSYFSFCLNISFFLCSVFL . Its measured transcriptional activation domain activity is 77800

Origin of the recorded values: the supplement of paper PMC12636428
